Assay: Acid dissociation constant, pKa of the compound
Format: physicochemical

| smiles.text | pKa |
| --- | --- |
| COCCCN1CCC(c2nnc(-c3nn(C(C)C)c4ccccc34)o2)CC1.O=C(O)C(=O)O | 8.4 |

====

Here the recorded metabolised at 0.5 h is given for each entry.
Test: in vitro
Conditions: rat, liver microsomes
assay.endpoint: metabolised at 0.5 h (%)

| smiles.text | reported.result |
| --- | --- |
| CC(C)N1CCC(c2nnc(-c3nn(C(C)C)c4ccccc34)o2)CC1 | 35.7 |
| COCCCN1CCC(c2nnc(-c3nn(C(C)C)c4ccccc34)o2)CC1.O=C(O)C(=O)O | 25.1 |
| CC(C)n1nc(-c2nnc(C3CCN(CC4CC4)CC3)o2)c2ccccc21 | 83.8 |
| CC(C)n1nc(-c2nnc(C3CCN(CC4CCC4)CC3)o2)c2ccccc21 | 55.1 |

====

Test: AUC (0 to 24 hrs) in Beagle dog at 1 mg/kg, po
Type: ADME, organism-based, Canis lupus familiaris
Design: dose 1 mg/kg, route po
Settings: in vivo

| smiles.text | units.text | AUC(0-t) |
| --- | --- | --- |
| COCCCN1CCC(c2nnc(-c3nn(C(C)C)c4ccccc34)o2)CC1.O=C(O)C(=O)O | µg·h/mL | 0.711 |

====

Here the recorded clearance at 24 h is given for each entry.
Test: in vivo
Conditions: Wistar, rat, iv, 1 mg/kg
assay.endpoint: clearance at 24 h (mL/min/kg)

| smiles.text | assay.endpoint | reported.result |
| --- | --- | --- |
| CC(C)n1c(=O)c(C(=O)NCCCN2CCCCC2)c(O)c2ccsc21 | clearance at 24 h | 62 |
| CC(C)n1nc(-c2nnc(C3CCN(CC4CCC4)CC3)o2)c2ccccc21 | clearance at 24 h | 81 |

====

Assay: Apparent permeability of the compound in human Caco-2 cells at 10 uM
Assay type: ADME, cell-based
assay.endpoint: Papp at 10 µM

| smiles.text | reported.result |
| --- | --- |
| COCCCN1CCC(c2nnc(-c3nn(C(C)C)c4ccccc34)o2)CC1.O=C(O)C(=O)O | 38 ×10⁻⁶ cm/s |

====

Assay: in vitro
Settings: rat, microsomes
assay.endpoint: metabolised at 0.5 h (%)

| smiles.text | assay.endpoint | reported.result |
| --- | --- | --- |
| CC(C)n1nc(-c2noc(C3CCN(CC4CCOCC4)CC3)n2)c2ccccc21 | metabolised at 0.5 h | 64.1 |

====

Assay: in vitro
Details: human, microsomes
assay.endpoint: metabolised at 0.5 h (%)

| smiles.text | assay.endpoint | units.text | reported.result |
| --- | --- | --- | --- |
| CC(C)n1nc(-c2noc(C3CCN(CC4CCOCC4)CC3)n2)c2ccccc21 | metabolised at 0.5 h | % | 40.4 |

====

Experiment: Clearance in Beagle dog at 1 mg/kg, iv
Format: ADME, organism-based, Canis lupus familiaris
Settings: in vivo
assay.endpoint: clearance (mL/min/kg)

| smiles.text | assay.endpoint | reported.result |
| --- | --- | --- |
| COCCCN1CCC(c2nnc(-c3nn(C(C)C)c4ccccc34)o2)CC1.O=C(O)C(=O)O | clearance | 18 |

====

Assay: in vivo
Conditions: Wistar, rat, po, 3 mg/kg

| smiles.text | AUC at 24 h, ng·h/mL |
| --- | --- |
| CC(C)n1c(=O)c(C(=O)NCCCN2CCCCC2)c(O)c2ccsc21 | 22 |
| CC(C)n1nc(-c2nnc(C3CCN(CC4CCC4)CC3)o2)c2ccccc21 | 16 |
